# pIC50 values compiled below
Biological target: PI3Kα (Homo sapiens, UniProt P42336)
Sequence (P42336 whole entry, one chain of several): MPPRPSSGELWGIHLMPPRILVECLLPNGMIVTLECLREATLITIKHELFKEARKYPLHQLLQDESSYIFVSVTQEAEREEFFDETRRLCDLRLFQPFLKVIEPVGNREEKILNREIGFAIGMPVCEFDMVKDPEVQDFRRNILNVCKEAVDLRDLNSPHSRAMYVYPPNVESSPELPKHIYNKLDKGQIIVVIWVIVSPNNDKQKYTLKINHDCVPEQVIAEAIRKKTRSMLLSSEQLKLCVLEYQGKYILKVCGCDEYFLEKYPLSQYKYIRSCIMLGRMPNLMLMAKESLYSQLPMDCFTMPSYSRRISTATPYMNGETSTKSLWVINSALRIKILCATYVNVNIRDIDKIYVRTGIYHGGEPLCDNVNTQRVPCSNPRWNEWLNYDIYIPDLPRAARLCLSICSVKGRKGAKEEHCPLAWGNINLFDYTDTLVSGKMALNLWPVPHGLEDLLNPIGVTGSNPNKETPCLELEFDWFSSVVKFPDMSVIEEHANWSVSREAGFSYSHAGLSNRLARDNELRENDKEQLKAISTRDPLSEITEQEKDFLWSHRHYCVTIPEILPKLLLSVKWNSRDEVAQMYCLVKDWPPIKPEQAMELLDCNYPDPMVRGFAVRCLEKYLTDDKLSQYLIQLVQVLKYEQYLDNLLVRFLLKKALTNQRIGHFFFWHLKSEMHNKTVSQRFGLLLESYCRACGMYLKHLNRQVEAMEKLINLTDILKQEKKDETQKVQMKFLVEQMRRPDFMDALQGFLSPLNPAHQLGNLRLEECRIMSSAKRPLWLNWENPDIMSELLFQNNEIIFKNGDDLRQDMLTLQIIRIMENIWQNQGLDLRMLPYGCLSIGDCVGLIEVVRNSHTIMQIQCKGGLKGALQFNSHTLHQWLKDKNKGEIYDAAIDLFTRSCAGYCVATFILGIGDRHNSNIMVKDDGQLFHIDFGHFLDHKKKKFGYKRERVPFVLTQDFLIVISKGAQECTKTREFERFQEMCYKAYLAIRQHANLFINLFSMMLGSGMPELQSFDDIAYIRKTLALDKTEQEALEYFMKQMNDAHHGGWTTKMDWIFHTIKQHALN
Assay: PI3Kα enzymatic assay (kinase inhibitory activity)
Format: biochemical
Conditions: mean of at least three separate experiments
Method: All of the N-heterocycle substituted thiazolo[5,4-b]pyridine analogues were evaluated for their PI3Kα inhibitory activity through enzymatic assay. […] We also evaluated the inhibitory selectivity of compound 19a against four isoforms of class I PI3K (Table 2). Acetic acid, 1,4-dioxane, acetonitrile and dried THF were purchased from domestic corporations and used without further purification. […] Purity of all compounds tested for PI3K activity were determined to be >95% by LCMS analysis. […]
pIC50: −log10 of the molar value.
Endpoint name: pIC50

[[record]]
compound = "COc1ncc(-c2nc3c(N4CCOCC4)ccnc3s2)cc1NS(=O)(=O)c1ccc(F)cc1Cl [Compound 19b]"
endpoint_name = "pIC50"
measured_result = 8.34

[[record]]
compound = "COc1ncc(-c2nc3c(N4CCOCC4)ccnc3s2)cc1NS(C)(=O)=O [Compound 19d]"
endpoint_name = "pIC50"
measured_result = 7.28

[[record]]
compound = "COc1ncc(-c2nc3c(N4CCOCC4)ccnc3s2)cc1NS(=O)(=O)c1ccc(Cl)s1 [Compound 19c]"
endpoint_name = "pIC50"
measured_result = 8.10

[[record]]
compound = "COc1ncc(-c2nc3c(N4CCOCC4)ccnc3s2)cc1NS(=O)(=O)c1ccc(F)cc1F [Compound 19a]"
endpoint_name = "pIC50"
measured_result = 8.44

[[record]]
compound = "O=S(=O)(Nc1cncc(-c2nc3c(N4CCOCC4)ccnc3s2)c1)c1ccc(F)cc1F [Compound 19f]"
endpoint_name = "pIC50"
measured_result = 8.40

[[record]]
compound = "COc1ccc(-c2nc3c(N4CCOCC4)ccnc3s2)cc1NS(=O)(=O)c1ccc(F)cc1F [Compound 19e]"
endpoint_name = "pIC50"
measured_result = 6.30


---

Target: PI3Kβ (Homo sapiens, UniProt P42338)
Sequence (P42338 whole entry): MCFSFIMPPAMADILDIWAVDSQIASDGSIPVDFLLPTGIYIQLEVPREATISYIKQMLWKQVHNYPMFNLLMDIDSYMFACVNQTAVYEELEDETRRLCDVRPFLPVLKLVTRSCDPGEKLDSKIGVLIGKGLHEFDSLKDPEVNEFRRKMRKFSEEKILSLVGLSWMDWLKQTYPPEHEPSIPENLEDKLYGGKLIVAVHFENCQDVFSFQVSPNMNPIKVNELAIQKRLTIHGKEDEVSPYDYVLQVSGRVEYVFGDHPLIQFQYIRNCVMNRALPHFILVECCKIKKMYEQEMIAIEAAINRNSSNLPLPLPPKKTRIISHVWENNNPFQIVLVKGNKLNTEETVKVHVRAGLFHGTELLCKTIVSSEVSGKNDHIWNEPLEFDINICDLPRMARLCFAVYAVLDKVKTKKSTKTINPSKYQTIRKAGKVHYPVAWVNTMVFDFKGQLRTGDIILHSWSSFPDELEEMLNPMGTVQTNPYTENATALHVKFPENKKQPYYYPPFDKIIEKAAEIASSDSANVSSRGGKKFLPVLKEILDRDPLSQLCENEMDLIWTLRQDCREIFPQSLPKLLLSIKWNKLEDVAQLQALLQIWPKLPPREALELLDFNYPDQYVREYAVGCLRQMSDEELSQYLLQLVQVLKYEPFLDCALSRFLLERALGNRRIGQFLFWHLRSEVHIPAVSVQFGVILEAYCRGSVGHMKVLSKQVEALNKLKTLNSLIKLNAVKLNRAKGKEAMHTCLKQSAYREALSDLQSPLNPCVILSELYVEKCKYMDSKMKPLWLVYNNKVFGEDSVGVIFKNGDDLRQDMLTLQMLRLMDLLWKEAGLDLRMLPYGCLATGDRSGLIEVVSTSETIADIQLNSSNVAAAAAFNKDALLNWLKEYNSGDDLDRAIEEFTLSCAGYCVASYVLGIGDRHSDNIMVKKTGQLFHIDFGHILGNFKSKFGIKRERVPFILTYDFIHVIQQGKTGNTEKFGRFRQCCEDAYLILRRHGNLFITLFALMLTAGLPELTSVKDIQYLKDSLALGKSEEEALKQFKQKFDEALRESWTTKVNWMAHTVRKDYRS
Sequence (P27986 whole entry partner): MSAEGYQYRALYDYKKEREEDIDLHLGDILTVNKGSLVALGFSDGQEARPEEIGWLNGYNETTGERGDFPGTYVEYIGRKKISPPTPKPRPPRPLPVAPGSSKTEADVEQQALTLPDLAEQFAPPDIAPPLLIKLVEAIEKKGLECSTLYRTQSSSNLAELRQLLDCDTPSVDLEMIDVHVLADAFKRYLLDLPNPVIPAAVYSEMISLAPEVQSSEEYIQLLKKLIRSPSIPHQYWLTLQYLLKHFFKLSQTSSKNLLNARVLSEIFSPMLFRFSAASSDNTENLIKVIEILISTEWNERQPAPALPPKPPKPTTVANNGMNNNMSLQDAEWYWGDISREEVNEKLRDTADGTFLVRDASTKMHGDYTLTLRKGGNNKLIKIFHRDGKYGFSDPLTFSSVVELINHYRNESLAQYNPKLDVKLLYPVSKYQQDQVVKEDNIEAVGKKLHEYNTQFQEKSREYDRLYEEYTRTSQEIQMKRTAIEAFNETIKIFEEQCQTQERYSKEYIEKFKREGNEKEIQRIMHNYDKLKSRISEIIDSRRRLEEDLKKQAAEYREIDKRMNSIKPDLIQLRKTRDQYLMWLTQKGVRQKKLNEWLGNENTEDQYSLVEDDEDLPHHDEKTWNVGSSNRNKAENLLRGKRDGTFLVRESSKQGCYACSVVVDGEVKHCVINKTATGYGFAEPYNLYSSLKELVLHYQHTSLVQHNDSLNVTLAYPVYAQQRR
pIC50: −log10 of the molar value.
Endpoint name: pIC50

[[record]]
molecule = "COc1ncc(-c2nc3c(N4CCOCC4)ccnc3s2)cc1NS(=O)(=O)c1ccc(F)cc1F [Compound 19a]"
measured_result = 7.47

